system: human HIF-PHD2 (Homo sapiens)
Simple rule here: IC50 less than 40 nM is MET, otherwise NOT MET.

| compound | system | class |
| --- | --- | --- |
| CCC(c1cccc(C(F)(F)F)c1)n1ncc2nc(-n3cc(C(=O)O)cn3)nc(O)c21 (centres unmarked) | human HIF-PHD2 (Homo sapiens) | NOT MET |
| CCC(c1cc(C(F)(F)F)cc(C(F)(F)F)c1)n1ncc2nc(-n3cc(C(=O)O)cn3)nc(O)c21 (single isomer, unassigned) | human HIF-PHD2 (Homo sapiens) | NOT MET |
| O=C(O)c1cnn(-c2nc(O)c3nn(C(c4ccc(Cl)cc4)c4ccc(Cl)cc4)cc3n2)c1 | human HIF-PHD2 (Homo sapiens) | MET |
| O=C(O)c1cnn(-c2nc(O)c3c(cnn3Cc3ccc(N4CCCC4=O)cc3)n2)c1 | human HIF-PHD2 (Homo sapiens) | NOT MET |
| O=C(O)c1cnn(-c2nc(O)c3c(n2)c(F)nn3CC2CCCCCC2)c1 | human HIF-PHD2 (Homo sapiens) | MET |
| O=C(O)c1cnn(-c2nc(O)c3c(cnn3CCOc3ccc(-c4ccccc4)cc3)n2)c1 | human HIF-PHD2 (Homo sapiens) | MET |
| CCC(c1ccc(C)cc1)n1ncc2nc(-n3cc(C(=O)O)cn3)nc(O)c21 (single isomer, unassigned) | human HIF-PHD2 (Homo sapiens) | NOT MET |
| COc1ccccc1-c1ccc(Cn2ncc3nc(-n4cc(C(=O)O)cn4)nc(O)c32)c(F)c1 | human HIF-PHD2 (Homo sapiens) | MET |

###

system: human HIF-PHD2 (Homo sapiens)
Simple rule here: IC50 less than 70 nM is yes (1), otherwise no (0).

| compound | class |
| --- | --- |
| CCc1nn(CC2CCCCC2)c2c(O)nc(-n3cc(C(=O)O)cn3)nc12 | no (0) |
| O=C(O)c1cnn(-c2nc(O)c3c(n2)c(C(F)(F)F)nn3CC2CCCCC2)c1 | no (0) |
| C[C@@H](C1CCN(c2ccc(OC(F)(F)F)cc2)CC1)n1ncc2nc(-n3cc(C(=O)O)cn3)nc(O)c21 | yes (1) |
| O=C(O)c1cnn(-c2nc(O)c3c(cnn3C3CCCCC3)n2)c1 | no (0) |
| Cc1cccc(-c2ccc(Cn3ncc4nc(-n5cc(C(=O)O)cn5)nc(O)c43)cc2)c1 | yes (1) |
| O=C(O)c1cnn(-c2nc(O)c3c(cnn3CCCOc3ccc(C(F)(F)F)cc3)n2)c1 | yes (1) |
| CCC(c1cc(F)cc(Cl)c1)n1ncc2nc(-n3cc(C(=O)O)cn3)nc(O)c21 (centres unmarked) [Example 339] | yes (1) |
| O=C(O)c1cnn(-c2nc(O)c3c(cnn3Cc3cccc(-c4ccc(C(F)(F)F)cc4)c3)n2)c1 | yes (1) |

###

The listing below reports pIC50 for compounds tested on human HIF-PHD3 (Homo sapiens).
pIC50: −log10 of the molar value.
readout_label: pIC50

| compound | readout_label | observed_value |
| --- | --- | --- |
| COc1ccccc1-c1ccc(Cn2ncc3nc(-n4cc(C(=O)O)cn4)nc(O)c32)cc1OC | pIC50 | 6.70 |
| CCC(c1ccc(F)cc1)n1ncc2nc(-n3cc(C(=O)O)cn3)nc(O)c21 (single isomer, unassigned) | pIC50 | 6.20 |
| O=C(O)c1cnn(-c2nc(O)c3c(cnn3CCc3ccc(-c4ccccc4)cc3)n2)c1 | pIC50 | 6.89 |
| O=C(O)c1cnn(-c2nc(O)c3c(cnn3CCCOc3ccc(C(F)(F)F)cc3Cl)n2)c1 | pIC50 | 6.77 |
| CCC(c1ccc(Cl)cc1F)n1ncc2nc(-n3cc(C(=O)O)cn3)nc(O)c21 (centres unmarked) | pIC50 | 6.28 |
| CC(C)(C)c1ccc(OCCn2ncc3nc(-n4cc(C(=O)O)cn4)nc(O)c32)cc1 | pIC50 | 6.19 |
| CCCC[C@H](C)n1ncc2nc(-n3cc(C(=O)O)cn3)nc(O)c21 | pIC50 | 6.05 |
| C[C@@H](c1ccc(-c2ccccc2)cc1)n1ncc2nc(-n3cc(C(=O)O)cn3)nc(O)c21 | pIC50 | 7.20 |

###

The reader will find reported IC50 values listed item by item below.
system: human HIF-PHD2 (Homo sapiens, UniProt Q9GZT9)
Sequence (Q9GZT9 2-426 limits assumed): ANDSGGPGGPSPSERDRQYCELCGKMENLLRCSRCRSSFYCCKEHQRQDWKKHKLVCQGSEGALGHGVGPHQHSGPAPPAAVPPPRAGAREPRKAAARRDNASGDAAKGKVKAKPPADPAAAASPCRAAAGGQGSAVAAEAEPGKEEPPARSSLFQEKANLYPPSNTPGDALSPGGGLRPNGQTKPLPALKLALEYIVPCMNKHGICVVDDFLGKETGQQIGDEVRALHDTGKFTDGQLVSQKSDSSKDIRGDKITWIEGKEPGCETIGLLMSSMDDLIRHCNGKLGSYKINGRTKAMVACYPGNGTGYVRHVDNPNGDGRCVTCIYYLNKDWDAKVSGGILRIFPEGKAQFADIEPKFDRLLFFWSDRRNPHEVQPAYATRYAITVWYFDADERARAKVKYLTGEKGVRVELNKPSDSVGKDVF
readout_label: IC50 (nM)

| compound | system | observed_value |
| --- | --- | --- |
| CC[C@H]1CC[C@H](n2nc(F)c3nc(-n4cc(C(=O)O)cn4)nc(O)c32)CC1 [Example 480] | human HIF-PHD2 (Homo sapiens, UniProt Q9GZT9) | 47 |
| CC(C)C(C(C)C)n1ncc2nc(-n3cc(C(=O)O)cn3)nc(O)c21 [Example 489] | human HIF-PHD2 (Homo sapiens, UniProt Q9GZT9) | 150 |
| C[C@@H](c1ccc(F)c(F)c1)n1ncc2nc(-n3cc(C(=O)O)cn3)nc(O)c21 [Example 251] | human HIF-PHD2 (Homo sapiens, UniProt Q9GZT9) | 55 |
| Cc1ccc(Cl)cc1C(C)n1ncc2nc(-n3cc(C(=O)O)cn3)nc(O)c21 (single isomer, unassigned) [Example 312] | human HIF-PHD2 (Homo sapiens, UniProt Q9GZT9) | 110 |
| C[C@@H](c1ccc(C(F)(F)F)c(F)c1)n1ncc2nc(-n3cc(C(=O)O)cn3)nc(O)c21 [Example 281] | human HIF-PHD2 (Homo sapiens, UniProt Q9GZT9) | 20 |
| O=C(O)c1cnn(-c2nc(O)c3c(cnn3C[C@H]3CC[C@@H](Oc4ccc(F)cc4)CC3)n2)c1 [Example 150] | human HIF-PHD2 (Homo sapiens, UniProt Q9GZT9) | 39 |
| Cc1cc(Cl)cc([C@H](C)n2ncc3nc(-n4cc(C(=O)O)cn4)nc(O)c32)c1 [Example 267] | human HIF-PHD2 (Homo sapiens, UniProt Q9GZT9) | 86 |
| CC1CCCC(n2ncc3nc(-n4cc(C(=O)O)cn4)nc(O)c32)C1 (centres unmarked) [Example 398] | human HIF-PHD2 (Homo sapiens, UniProt Q9GZT9) | 52 |

###

The reader will find reported pIC50 values listed item by item below.
system: human HIF-PHD3 (Homo sapiens, UniProt Q9H6Z9)
Sequence (Q9H6Z9 whole entry): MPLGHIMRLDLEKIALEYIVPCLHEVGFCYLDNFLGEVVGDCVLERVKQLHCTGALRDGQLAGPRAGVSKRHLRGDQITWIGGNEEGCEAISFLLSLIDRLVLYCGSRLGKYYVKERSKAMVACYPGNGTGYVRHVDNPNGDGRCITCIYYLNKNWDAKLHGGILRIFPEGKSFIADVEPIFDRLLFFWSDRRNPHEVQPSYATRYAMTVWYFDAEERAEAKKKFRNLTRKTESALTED
pIC50: −log10 of the molar value.

| compound | system | pIC50 |
| --- | --- | --- |
| O=C(O)c1cnn(-c2nc(O)c3c(cnn3CCCCOc3ccc(F)cc3)n2)c1 [Example 215] | human HIF-PHD3 (Homo sapiens, UniProt Q9H6Z9) | 6.54 |
| O=C(O)c1cnn(-c2nc(O)c3c(cnn3Cc3cccc4ccccc34)n2)c1 [Example 28] | human HIF-PHD3 (Homo sapiens, UniProt Q9H6Z9) | 6.44 |
| O=C(O)c1cnn(-c2nc(O)c3c(cnn3Cc3ccc(-c4ccccc4F)cc3)n2)c1 [Example 56] | human HIF-PHD3 (Homo sapiens, UniProt Q9H6Z9) | 6.59 |
| O=C(O)c1cnn(-c2nc(O)c3c(cnn3C3CCCCCCC3)n2)c1 [Example 394] | human HIF-PHD3 (Homo sapiens, UniProt Q9H6Z9) | 6.38 |

###

system: human HIF-PHD3 (Homo sapiens, UniProt Q9H6Z9)
The reader will find reported IC50 values listed item by item below.

| molecule | IC50 (µM) |
| --- | --- |
| O=C(O)c1cnn(-c2nc(O)c3c(cnn3CCCOc3ccc(-c4ccccc4)cc3)n2)c1 [Example 196] | 0.3 |
| O=C(O)c1cnn(-c2nc(O)c3c(cnn3Cc3ccc(C4CCCCC4)cc3)n2)c1 [Example 37] | 0.12 |
| O=C(O)c1cnn(-c2nc(O)c3c(cnn3Cc3ccc4ccccc4c3F)n2)c1 [Example 34] | 0.24 |
| O=C(O)c1cnn(-c2nc(O)c3c(cnn3C3CCC(F)(F)CC3)n2)c1 [Example 392] | 1.3 |
| Cc1ccc(C(C2CC2)n2ncc3nc(-n4cc(C(=O)O)cn4)nc(O)c32)cc1 (single isomer, unassigned) [Example 369] | 0.4 |
| Cc1ccc(C(C(C)C)n2ncc3nc(-n4cc(C(=O)O)cn4)nc(O)c32)cc1 (centres unmarked) [Example 25] | 2.9 |
| C[C@H](c1ccc(-c2ccccc2)cc1)n1ncc2nc(-n3cc(C(=O)O)cn3)nc(O)c21 [Example 109] | 0.26 |
| CC1(C)CCCC(n2ncc3nc(-n4cc(C(=O)O)cn4)nc(O)c32)C1 (centres unmarked) [Example 411] | 0.55 |

###

pIC50: −log10 of the molar value.
The listing below reports pIC50 for molecules tested on human HIF-PHD3 (Homo sapiens, UniProt Q9H6Z9).

| molecule | pIC50 |
| --- | --- |
| C[C@H](c1ccc(C(F)(F)F)cc1)n1ncc2nc(-n3cc(C(=O)O)cn3)nc(O)c21 | 6.08 |
| O=C(O)c1cnn(-c2nc(O)c3c(cnn3Cc3ccc(-c4cccc(F)c4F)cc3)n2)c1 | 6.92 |
| O=C(O)c1cnn(-c2nc(O)c3c(cnn3CCOc3ccc(C(F)(F)F)cc3)n2)c1 | 6.77 |
| C[C@@H](C1CCN(c2ccc(OC(F)(F)F)cc2)CC1)n1ncc2nc(-n3cc(C(=O)O)cn3)nc(O)c21 | 6.27 |
| C[C@H]1CC[C@@H](n2ncc3nc(-n4cc(C(=O)O)cn4)nc(O)c32)CC1 | 6.42 |
| O=C(O)c1cnn(-c2nc(O)c3c(cnn3Cc3ccc(-c4ccc(Cl)cc4Cl)cc3)n2)c1 | 6.55 |
| O=C(O)c1cnn(-c2nc(O)c3c(cnn3Cc3ccc4ccccc4c3)n2)c1 | 6.70 |
| O=C(O)c1cnn(-c2nc(O)c3c(cnn3C[C@H]3CCN(c4ccc(Cl)cc4)C3)n2)c1 | 6.64 |
| Cc1ccc(Cn2ncc3nc(-n4cc(C(=O)O)cn4)nc(O)c32)cc1-c1ccccc1 | 6.39 |
| CC(C)(C)c1cccc(OCCCn2ncc3nc(-n4cc(C(=O)O)cn4)nc(O)c32)c1 | 6.80 |
| CC(C)(C)[C@H]1CC[C@@H](n2ncc3nc(-n4cc(C(=O)O)cn4)nc(O)c32)CC1 | 5.96 |
| O=C(O)c1cnn(-c2nc(O)c3c(n2)c(Cl)nn3CC2CCCCC2)c1 | 6.35 |
| CC[C@@H](c1ccc(Cl)c(Cl)c1)n1ncc2nc(-n3cc(C(=O)O)cn3)nc(O)c21 | 6.77 |
| O=C(O)c1cnn(-c2nc(O)c3c(cnn3Cc3ccc(-c4cc(F)ccc4F)cc3)n2)c1 | 6.89 |
| Cc1nn(CC2CCC(F)(F)CC2)c2c(O)nc(-n3cc(C(=O)O)cn3)nc12 | 6.57 |
| CC(c1cc(F)cc(Cl)c1)n1ncc2nc(-n3cc(C(=O)O)cn3)nc(O)c21 (centres unmarked) | 6.23 |
| O=C(O)c1cnn(-c2nc(O)c3nn(C(c4ccc(Cl)cc4)c4ccc(Cl)cc4)cc3n2)c1 | 7.00 |
| Cc1nn(Cc2ccc3ccccc3c2)c2c(O)nc(-n3cc(C(=O)O)cn3)nc12 | 6.40 |
| O=C(O)c1cnn(-c2nc(O)c3c(cnn3Cc3cccc(OC(F)(F)F)c3)n2)c1 | 6.33 |
| O=C(O)c1cnn(-c2nc(O)c3c(cnn3CC3(c4ccccc4)CCCCC3)n2)c1 | 6.03 |
| Cc1nn([C@@H](C)c2ccc(F)cc2F)c2c(O)nc(-n3cc(C(=O)O)cn3)nc12 | 6.08 |
| O=C(O)c1cnn(-c2nc(O)c3c(cnn3C(c3cccc(Cl)c3)C3CC3)n2)c1 (centres unmarked) | 6.20 |
| C[C@@H](C1CCN(c2cccc(Cl)c2)CC1)n1ncc2nc(-n3cc(C(=O)O)cn3)nc(O)c21 | 6.77 |
| CCC(c1ccc(Cl)c(C)c1)n1ncc2nc(-n3cc(C(=O)O)cn3)nc(O)c21 (single isomer, unassigned) [Example 347] | 6.40 |
| Cc1cccc(C)c1-c1cccc(Cn2ncc3nc(-n4cc(C(=O)O)cn4)nc(O)c32)c1 | 6.47 |
| CCC(C)(C)Cn1ncc2nc(-n3cc(C(=O)O)cn3)nc(O)c21 | 6.36 |
| Cc1cc(C(C)n2ncc3nc(-n4cc(C(=O)O)cn4)nc(O)c32)ccc1F (single isomer, unassigned) [Example 302] | 6.24 |
| Cc1cc(Cn2ncc3nc(-n4cc(C(=O)O)cn4)nc(O)c32)ccc1-c1ccccc1F | 6.52 |
| O=C(O)c1cnn(-c2nc(O)c3c(cnn3CCCOc3ccc(Cl)c(C(F)(F)F)c3)n2)c1 | 6.77 |
| O=C(O)c1cnn(-c2nc(O)c3c(n2)c(F)nn3C2CCCCCCC2)c1 | 5.89 |
| O=C(O)c1cnn(-c2nc(O)c3c(cnn3Cc3cccc(-c4ccccc4F)c3)n2)c1 | 7.07 |
| CC(C)(C)[C@H]1CC[C@H](Cn2ncc3nc(-n4cc(C(=O)O)cn4)nc(O)c32)CC1 | 6.44 |

Just for reference, patent US20150239889A1 is where these values come from.
